Molecular target: Yer184c (UniProt P39961)
Sequence: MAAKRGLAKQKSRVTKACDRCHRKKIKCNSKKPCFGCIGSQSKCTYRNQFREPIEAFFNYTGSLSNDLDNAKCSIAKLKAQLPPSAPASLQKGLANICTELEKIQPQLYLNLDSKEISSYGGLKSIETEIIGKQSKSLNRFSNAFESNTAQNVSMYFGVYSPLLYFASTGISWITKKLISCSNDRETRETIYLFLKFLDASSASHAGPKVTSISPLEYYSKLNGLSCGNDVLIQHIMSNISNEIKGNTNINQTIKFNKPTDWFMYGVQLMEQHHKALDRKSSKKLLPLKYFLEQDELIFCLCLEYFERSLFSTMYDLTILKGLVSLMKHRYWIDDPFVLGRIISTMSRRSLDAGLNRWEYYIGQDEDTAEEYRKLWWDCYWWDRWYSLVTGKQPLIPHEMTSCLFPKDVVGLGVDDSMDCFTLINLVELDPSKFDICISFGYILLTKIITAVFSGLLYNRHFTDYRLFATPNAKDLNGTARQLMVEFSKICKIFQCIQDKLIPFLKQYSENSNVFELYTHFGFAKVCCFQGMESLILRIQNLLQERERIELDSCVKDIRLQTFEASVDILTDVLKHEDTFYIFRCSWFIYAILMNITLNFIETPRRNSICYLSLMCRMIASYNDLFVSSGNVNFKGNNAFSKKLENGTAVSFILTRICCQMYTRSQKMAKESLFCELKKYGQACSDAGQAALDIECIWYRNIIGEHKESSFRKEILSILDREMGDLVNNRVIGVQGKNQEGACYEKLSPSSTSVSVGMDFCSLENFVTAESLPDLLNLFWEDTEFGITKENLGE
Test: PBM E-score (8-mer binding enrichment) (E-score (-0.5 to 0.5)); higher = stronger / more preferred TF binding
Conditions: protein concentration: 100 nM; construct: GST-full length
In all, about 33,000 sequences were measured (“E-score (-0.5 to 0.5)”: median about -0.016, highest 2% from about 0.3 on). The full list was thinned out, with the highest values kept by preference.
# binarize PBM E-score: threshold 0.1 inclusive, high side 1.0, low side 0.0

| sequence-input | category |
| --- | --- |
| CGGTTAAG | 1.0 |
| CGGCCGAC | 1.0 |
| CTCTTAGA | 0.0 |
| CAGCCGAG | 1.0 |
| CCCCTGAC | 0.0 |
| CGGCGATC | 1.0 |
| ACCTACAC | 0.0 |
| TGGCGAAA | 0.0 |
| AGGCGATA | 0.0 |
| ACGGTCCG | 1.0 |
| AGGCCGAG | 1.0 |
| CAATAGAG | 0.0 |
| GAACTTGC | 0.0 |
| CGCATTAG | 0.0 |
| CGGCCGAG | 1.0 |
| CTCGAAAA | 0.0 |
| AGGCGATC | 0.0 |
| CTAAAGGC | 0.0 |
| GGGCGATA | 0.0 |
| GGGCCGAC | 1.0 |
| CGGCGATA | 1.0 |
| CGGCGAAA | 1.0 |

This collection of values is drawn from the supplement of paper PMC3334620.
